target: HLA-DR DRB1*0802 (DR8) (Homo sapiens, UniProt P01903+P01911, A100R/A103L/A169T/F76Y/H45Y/I96F/K41T/L162R/M171V/P40S/Q125H/Q178H/Q39Y/Q99D/R218S/R42G/S66Y/V115G/W38E); assay: biochemical; type: binding
Entries and their measured pIC50 follow.
pIC50 here is simply -log10 of the concentration when that concentration is written in mol/L.

smiles.structure	value.reported
CC[C@H](C)[C@H](NC(=O)[C@H](CCCNC(=N)N)NC(=O)[C@@H](N)[C@@H](C)O)C(=O)N[C@@H](Cc1ccc(O)cc1)C(=O)N[C@@H](CC(N)=O)C(=O)N[C@H](C(=O)N[C@H](C(=O)NCC(=O)N[C@H](C(=O)N[C@@H](CC(C)C)C(=O)N[C@@H](CCCNC(=N)N)C(=O)NCC(=O)N[C@@H](C)C(=O)N[C@H](C(=O)N[C@@H](CCC(=O)O)C(=O)O)C(C)C)[C@@H](C)O)[C@@H](C)CC)C(C)C	7.15

Ask: I'd like to know its pIC50. The compound in question is `CC[C@H](C)[C@H](NC(=O)CNC(=O)[C@H](Cc1ccc(O)cc1)NC(=O)[C@H](CC(C)C)NC(=O)[C@H](CO)NC(=O)[C@H](CC(C)C)NC(=O)[C@H](CC(C)C)NC(=O)[C@H](CO)NC(=O)[C@H](CC(C)C)NC(=O)[C@H](CCC(=O)O)NC(=O)[C@H](CO)NC(=O)[C@H](CC(C)C)NC(=O)[C@H](CCC(=O)O)NC(=O)[C@H](CCCNC(=N)N)NC(=O)[C@@H](N)CC(C)C)C(=O)O`
Reply: 5.03

----------
molecular target: HLA-DR DRB1*0401 (DR4) (Homo sapiens, UniProt P01903+P01911, A100K/A169T/F76Y/I96L/K127E/L162R/M171V/N62H/P40V/Q125Y/R42H/S133A/S149N/S66Y/V115G/V209L/W38E); test: biochemical; format: binding; conditions: DRB1 *0401
The reader will find reported pIC50 values listed item by item below.
Note on units: pIC50 is unitless, being -log10 of a concentration expressed in mol/L.

Illustrative cases are given below, each with its answer.
smiles.structure	pIC50
CC[C@H](C)[C@H](NC(=O)[C@H](CO)NC(=O)[C@H](CC(C)C)NC(=O)[C@@H](NC(=O)[C@H](CC(C)C)NC(=O)[C@@H](N)CC(=O)O)C(C)C)C(=O)N[C@@H](C)C(=O)N[C@@H](CC(C)C)C(=O)N[C@@H](CO)C(=O)N[C@H](C(=O)NCC(=O)N[C@@H](CS)C(=O)N[C@H](C(=O)NCC(=O)N[C@@H](C)C(=O)O)[C@@H](C)O)C(C)C	4.88
C[C@H](N)C(=O)N[C@@H](C)C(=O)N[C@@H](C)C(=O)N[C@@H](C)C(=O)N[C@@H](C)C(=O)N[C@@H](C)C(=O)N[C@@H](C)C(=O)N[C@@H](C)C(=O)N[C@@H](C)C(=O)N[C@@H](C)C(=O)N[C@@H](C)C(=O)N[C@@H](CC(N)=O)C(=O)N[C@@H](C)C(=O)O	6.00

Ask: Please give the measured pIC50 for this compound: `CC(C)C[C@H](NC(=O)CNC(=O)[C@H](CC(N)=O)NC(=O)[C@@H](N)Cc1ccc(O)cc1)C(=O)N[C@@H](CC(C)C)C(=O)N1CCC[C@H]1C(=O)N1CCC[C@H]1C(=O)N[C@@H](Cc1ccc(O)cc1)C(=O)N[C@@H](C)C(=O)N[C@@H](CO)C(=O)N[C@@H](CS)C(=O)N[C@@H](Cc1c[nH]cn1)C(=O)N[C@@H](CC(C)C)C(=O)N[C@H](C(=O)N[C@@H](CCC(=O)O)C(=O)O)[C@@H](C)O`
Reply: 5.21
